biological target: ΔF508-CFTR (Homo sapiens, UniProt P13569, DEL508-508); construct: host or cells: CFBE41o-, doxycycline-inducible; assay: CFTR cell surface levels using HRP-tagged ΔF508-CFTR expressing CFBE cells, in the presence of a co-corrector; format: cell-based; conditions: HRP-tagged ΔF508-CFTR expressing CFBE cells, in the presence of 3 μM co-corrector; read-out: EC50
Sequence (P13569 with tags, fused parts or gaps DEL508-508): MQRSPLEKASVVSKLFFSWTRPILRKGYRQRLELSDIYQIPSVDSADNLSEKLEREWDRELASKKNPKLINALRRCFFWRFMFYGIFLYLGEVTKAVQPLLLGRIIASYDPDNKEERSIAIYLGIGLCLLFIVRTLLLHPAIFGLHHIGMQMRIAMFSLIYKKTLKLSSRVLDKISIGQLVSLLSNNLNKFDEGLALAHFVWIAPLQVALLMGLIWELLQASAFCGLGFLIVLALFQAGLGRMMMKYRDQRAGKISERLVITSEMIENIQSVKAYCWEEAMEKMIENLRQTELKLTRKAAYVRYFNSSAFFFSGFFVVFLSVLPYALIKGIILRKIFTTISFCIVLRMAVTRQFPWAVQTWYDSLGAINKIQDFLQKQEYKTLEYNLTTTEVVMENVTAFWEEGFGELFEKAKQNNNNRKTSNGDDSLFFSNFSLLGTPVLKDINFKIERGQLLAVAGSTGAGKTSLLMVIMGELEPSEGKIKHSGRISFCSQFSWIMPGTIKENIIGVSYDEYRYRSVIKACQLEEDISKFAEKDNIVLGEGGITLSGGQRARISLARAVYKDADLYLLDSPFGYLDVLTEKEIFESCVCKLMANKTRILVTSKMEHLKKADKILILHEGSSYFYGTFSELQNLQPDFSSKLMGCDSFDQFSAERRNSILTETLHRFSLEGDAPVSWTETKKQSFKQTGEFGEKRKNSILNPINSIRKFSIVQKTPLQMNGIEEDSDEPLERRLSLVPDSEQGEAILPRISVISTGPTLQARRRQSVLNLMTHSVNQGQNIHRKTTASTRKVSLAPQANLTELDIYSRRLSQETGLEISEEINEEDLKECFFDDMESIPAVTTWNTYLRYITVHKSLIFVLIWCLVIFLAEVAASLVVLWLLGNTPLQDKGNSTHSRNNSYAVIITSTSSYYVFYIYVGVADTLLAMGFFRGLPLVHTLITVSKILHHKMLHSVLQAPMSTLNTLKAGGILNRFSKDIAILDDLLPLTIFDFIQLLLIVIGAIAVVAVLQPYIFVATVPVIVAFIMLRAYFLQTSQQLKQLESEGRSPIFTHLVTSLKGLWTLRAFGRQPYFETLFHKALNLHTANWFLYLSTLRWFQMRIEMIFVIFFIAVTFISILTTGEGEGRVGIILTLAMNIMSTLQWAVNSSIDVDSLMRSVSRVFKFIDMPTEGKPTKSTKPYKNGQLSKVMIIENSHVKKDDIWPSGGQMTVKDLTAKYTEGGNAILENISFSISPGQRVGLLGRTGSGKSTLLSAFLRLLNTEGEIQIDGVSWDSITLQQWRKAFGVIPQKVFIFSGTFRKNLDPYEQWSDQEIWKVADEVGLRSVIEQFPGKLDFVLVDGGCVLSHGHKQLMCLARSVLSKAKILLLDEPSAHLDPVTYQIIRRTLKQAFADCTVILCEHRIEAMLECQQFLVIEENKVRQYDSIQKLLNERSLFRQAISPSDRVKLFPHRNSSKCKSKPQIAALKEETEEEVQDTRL
Record form. Attribute: pEC50. Fill in for each entry.
Give bare numbers, as −log10 of the molar value.

compound="COCC1(F)CCN(c2cc(C(=O)O)nc3c2c(C2CCC2)nn3-c2ccccc2)C1 (stereo not drawn)" measured=6.35
compound=O=C(O)c1cc(N2CC[C@@H](N3CCCCC3)C2)c2c(C3CCC3)nn(-c3ccccc3)c2n1 measured=5.90

Dear reader, for each entry below, please note its pEC50.
1. Cc1cccc(-n2nc(C(C)C)c3c(N4CCC(C#N)C4)cc(C(=O)O)nc32)c1 (stereo not drawn)
2. CC(C)c1nn(-c2cccc(N(C)C)c2)c2nc(C(=O)O)cc(N3CCC(C#N)CC3)c12
3. O=C(O)c1cc(N2CCC(CN3CCC(F)(F)C3)CC2)c2c(C3CCC3)nn(-c3ccccc3)c2n1
4. CC(C)c1nn(-c2ccc(F)cc2)c2nc(C(=O)O)cc(N3CCCC(C(F)F)C3)c12 (stereo not drawn)

6.03
6.51
7.32
6.32

====

biological target: ΔF508-CFTR (Homo sapiens, UniProt P13569, DEL508-508); construct: host or cells: CFBE41o-, doxycycline-inducible; experiment: CFTR cell surface levels using HRP-tagged ΔF508-CFTR expressing CFBE cells, intrinsic corrector capacity; assay type: cell-based; conditions: HRP-tagged ΔF508-CFTR CFBE41o- cells, compounds alone (intrinsic corrector capacity), 20 hours at 33° C.; read-out: EC50
endpoint: pEC50
Answers are plain numbers, as −log10 of the molar value.

Use the examples below as a reference point.
compound=CC(C)c1nn(C2CCCC2)c2nc(C(=O)O)cc(-c3cnc(N(C)C)nc3)c12 endpoint=pEC50 measured=5.80
compound="Cc1cccc(-n2nc(C(C)C)c3c(N4CCC5C(CCN5C(=O)OC(C)(C)C)C4)cc(C(=O)O)nc32)c1 (stereo not shown)" endpoint=pEC50 measured=6.33
compound=CC(C)c1nn(-c2cccc(N3CCOCC3)c2)c2nc(C(=O)O)cc(-c3ccc(N4CCOCC4)cc3)c12 endpoint=pEC50 measured=6.28
compound=O=C(O)c1cc(N2CCC(OCC(=O)N3CCCC3)CC2)c2c(C3CCC3)nn(-c3ccccc3)c2n1 endpoint=pEC50 measured=6.00
compound=N#CC1CCN(c2ccc(-c3cc(C(=O)O)nc4c3c(C3CCC3)nn4-c3cccc(N4CCCC4)c3)cn2)CC1 endpoint=pEC50 measured=6.26

Which pEC50 reading was recorded for the compound CC(C)c1nn(-c2cccc(F)c2)c2nc(C(=O)O)cc(-c3ccc(N(C)C4CCOCC4)nc3)c12 ?
6.19

====

Biological target: ΔF508-CFTR (Homo sapiens, UniProt P13569, DEL508-508)
Construct: host or cells: CFBE41o-, doxycycline-inducible
Assay: CFTR cell surface levels using HRP-tagged ΔF508-CFTR expressing CFBE cells, intrinsic corrector capacity
Type: cell-based
Conditions: HRP-tagged ΔF508-CFTR CFBE41o- cells, compounds alone (intrinsic corrector capacity), 20 hours at 33° C.; read-out: EC50
Excerpt: Measuring CFTR Cell Surface Levels Using HRP-Tagged AF508-CFTR Expressing CFBE Cells The HRP-tagged AF508-CFTR cell assay measures the expression of CFTR-ΔF508 at the plasma membrane. […] When HRP-tagged AF508-CFTR is present at the plasma membrane, the HRP enzyme activity can be measured. The amount of CFTR-ΔF508 that can be rescued to the plasma membrane is correlated with the amount of functional enzyme that can be measured. […]
pEC50: −log10 of the molar value.
If the reported pEC50 equals or exceeds 6, assign true (1). If not, assign false (0).

Answered examples (5):
compound="Cc1nn(-c2ccccc2)c2nc(C(=O)O)cc(N3CCC([C@H](F)CN(C)C)CC3)c12 [compound 314]" measurement_target="ΔF508-CFTR (Homo sapiens, UniProt P13569, DEL508-508)" assigned_class="false (0)"
compound="CC(=O)N1CCN(c2ccc(-c3cc(C(=O)O)nc4c3c(C)nn4-c3ccccc3)cc2)CC1 [compound 29]" measurement_target="ΔF508-CFTR (Homo sapiens, UniProt P13569, DEL508-508)" assigned_class="false (0)"
compound="Cc1nn(-c2ccccc2)c2nc(C(=O)O)cc(N3CC(N4CCOCC4)C3)c12 [compound 302]" measurement_target="ΔF508-CFTR (Homo sapiens, UniProt P13569, DEL508-508)" assigned_class="false (0)"
compound="CC(C)c1nn(C2CCCCC2)c2nc(C(=O)O)cc(-c3cnc(N(C)C4CCN(C(=O)OC(C)(C)C)CC4)nc3)c12 [compound 374]" measurement_target="ΔF508-CFTR (Homo sapiens, UniProt P13569, DEL508-508)" assigned_class="true (1)"
compound="Cc1nn(-c2cccc(N3CCOCC3)c2)c2nc(C(=O)O)cc(-c3ccc(N4CCOCC4)cc3)c12 [compound 32]" measurement_target="ΔF508-CFTR (Homo sapiens, UniProt P13569, DEL508-508)" assigned_class="true (1)"

Please tell me: is the compound COCCN(C)c1ccc(-c2cc(C(=O)O)nc3c2c(C(C)C)nn3-c2cccc(N3CCOCC3)c2)cn1 [compound 179] at or over 6 in terms of pEC50?
false (0)

Threshold query (pEC50 >= 6) on CC(C)c1nn(-c2cccc(N3CCOCC3)c2)c2nc(C(=O)O)cc(-c3ccc(N(C)C)nc3)c12 [compound 89]
false (0)

Is pEC50 for CC(C)c1nn([C@@H]2CCC[C@@H](O)C2)c2nc(C(=O)O)cc(-c3ccc(N4CCOCC4)cc3)c12 (racemic) [compound 194] at or above 6?
false (0)
